Source: patent US20200008426A1

# assayComment: LogP by HPLC on reversed phase columns (EEC directive 79/831 Annex V.A8)
# conditionContext: Table 2, formula (V); LC-UV, acidic range, 0.1% formic acid in water and acetonitrile
Quick reference for LogP [a] among some compounds

CC(=O)c1ccc(Oc2ccc(F)cc2)nc1Cl [V.12] | 3.11^[a]

Incoming: Given the compound CC(=O)c1ccc(Oc2ccc(Cl)cc2)nc1C(F)F [V.05] , what is its reported LogP [a]?
Outgoing: 3.35^[a]

Incoming: Item: CC(=O)c1cnc(Oc2ccccc2)cc1Cl [V.08]
Outgoing: 2.94

Incoming: Repeat for the following compound: CC(=O)c1ccc(Oc2ccc(S(F)(F)(F)(F)F)cc2)nc1Cl [V.30]
Outgoing: 3.99^[a]

Incoming: For CC(=O)c1ccc(Oc2ccc(S(F)(F)(F)(F)F)cc2)nc1C(F)(F)F [V.16] then?
Outgoing: 4.09^[a]

Incoming: Same thing, different compound: CC(=O)c1ccc(Oc2ccc(Cl)cc2)nc1Cl [V.10]
Outgoing: 3.47

Incoming: Would you kindly repeat that for CC(=O)c1cnc(Oc2ccc(Cl)cc2)cc1C(C)=O [V.19] ?
Outgoing: 3.11^[a]

Incoming: Try this compound next: CC(=O)c1cnc(Oc2ccc(Br)cc2)cc1C(F)(F)F [V.27]
Outgoing: 3.99^[a]

Incoming: Could you do the same for CC(=O)c1cnc(Oc2ccc(C(F)F)cc2)cc1C(F)(F)F [V.04] , please?
Outgoing: 3.62^[a]

Incoming: Can you handle CC(=O)c1ccc(Oc2ccc(Cl)cc2)nc1F [V.24] next?
Outgoing: 3.51^[a]

###

# assayComment: LogP by HPLC on reversed phase columns (EEC directive 79/831 Annex V.A8)
# conditionContext: Table 2, formula (V); LC-UV, acidic range, 0.1% formic acid in water and acetonitrile
Listed below: LogP [a] values for each entry.

Sample answers from the record:
CC(=O)c1cnc(Oc2ccc(Cl)cc2F)cc1C(F)(F)F | 4.09^[a]
O=C(c1ccc(Oc2ccc(C(F)(F)F)cc2)nc1C(F)(F)F)C1CC1 | 4.37^[a]
CC(=O)c1ccc(Oc2c(F)cc(Cl)cc2F)nc1C(F)(F)F | 4.06^[a]
CC(=O)c1ccc(Oc2ccc(C(F)F)cc2)nc1C(F)(F)F | 3.26^[a]
CC(=O)c1ccc(Oc2ccc(Cl)cc2)nc1Cl [V.26] | 3.45^[a]

Incoming: Name the reported LogP [a] value associated with the compound CC(=O)c1cnc(Oc2ccc(Cl)cc2)cc1Cl [V.09]
Outgoing: 3.52

Incoming: Another compound to look at: `CC(=O)c1ccc(Oc2ccc(Cl)cc2)nc1OC(F)(F)F`
Outgoing: 4.37^[a]

Incoming: Same read-out for `O=C(c1ccc(Oc2ccc(S(F)(F)(F)(F)F)cc2)nc1C(F)(F)F)C1CC1` ?
Outgoing: 4.67^[a]

Incoming: Likewise for `CC(=O)c1cnc(Oc2ccc(OC(F)(F)F)cc2)cc1C(F)(F)F` ?
Outgoing: 4.20^[a]

Incoming: Field entry: `CC(=O)c1ccc(Oc2ccc(Br)cc2)nc1C(F)(F)F`
Outgoing: 3.85^[a]

###

# assayComment: LogP by HPLC on reversed phase columns (EEC directive 79/831 Annex V.A8)
# conditionContext: reversed-phase HPLC column
attributeMeasured: chromatographic logP

Incoming: Quick check: chromatographic logP of OC(Cn1cncn1)(c1ccc(Oc2ccc(Br)cc2)nc1C(F)(F)F)C1CC1 (stereo not shown) ?
Outgoing: 3.7

###

Some compounds, each annotated with its measured LogP [a].
# assayComment: LogP by HPLC on reversed phase columns (EEC directive 79/831 Annex V.A8)
# conditionContext: Table 1, formula (I); LC-UV, acidic range, 0.1% formic acid in water and acetonitrile

Incoming: Reported LogP [a] for CC(O)(Cn1cncn1)c1ccc(Oc2ccccc2)nc1Cl (stereo not drawn) : what is it?
Outgoing: 2.14

###

# System: fish (Danio rerio) embryos
# assayComment: In vivo ecotoxicity screening test on fish (Danio rerio)
# conditionContext: active compound alone; fish embryos, 96 h, 28.5° C.
# reported Ecotoxicity LC50-96 h found; entries follow

Worked cases, answers included:
OC(Cc1ccccc1Cl)(Cn1nc[nH]c1=S)C1(Cl)CC1 (centres unmarked) | 3.16 ppm a.i.
O=C(NCCc1ncc(C(F)(F)F)cc1Cl)c1ccccc1C(F)(F)F | >200 ppm a.i.
CCCOc1nc2ccc(I)cc2c(=O)n1CCC | 9.89 ppm a.i.
CC(C)C1CCC(Cc2ccc(Cl)cc2)C1(O)Cn1cncn1 (centres unmarked) | 6.57 ppm a.i.
O=C(Cc1ccccc1)N/C(=N\OCC1CC1)c1c(C(F)(F)F)ccc(F)c1F | 5.2 ppm a.i.

Incoming: Tell me the measured Ecotoxicity LC50-96 h found of Cc1nn(C)c(F)c1C(=O)Nc1ccccc1C(C)CC(C)C (centres unmarked) , please.
Outgoing: 0.62 ppm a.i.

Incoming: Now the same for `N#Cc1c[nH]cc1-c1cccc2c1OC(F)(F)O2`
Outgoing: 0.89 ppm a.i.

Incoming: Again, but for CC(C)(C)C(O)(CCc1ccc(Cl)cc1)Cn1cncn1 (centres unmarked)
Outgoing: 19.7 ppm a.i.

###

// reported LogP [b] per item
# assayComment: LogP by HPLC on reversed phase columns (EEC directive 79/831 Annex V.A8)
# conditionContext: Table 2, formula (V); LC-UV, neutral range, 0.001 molar ammonium acetate in water and acetonitrile
Enter the number alone.

Below, 3 molecules whose answers are already recorded.
CC(=O)c1ccc(Oc2ccc(Cl)cc2)nc1Cl | 3.36
CC(=O)c1ccc(Oc2ccccc2)nc1Cl | 2.85
CC(=O)c1cnc(Oc2ccccc2)cc1Cl | 2.86

Incoming: Item under review: `CC(=O)c1cnc(Oc2ccc(Cl)cc2)cc1Cl` . Reported LogP [b]?
Outgoing: 3.42

###

# assayComment: LogP by HPLC on reversed phase columns (EEC directive 79/831 Annex V.A8)
# conditionContext: Table 1, formula (I); LC-UV, acidic range, 0.1% formic acid in water and acetonitrile
# Procedure: Measurement of LogP values was performed according to EEC directive 79/831 Annex V.A8 by HPLC (High Performance Liquid Chromatography) on reversed phase columns with the following methods: Lambda-max-values were determined using UV-spectra from 200 nm to 400 nm and the peak values of the chromatographic signals.
Recorded LogP [a] by entry

In the examples that follow, each entry is paired with its recorded LogP [a].
CC(O)(Cn1cncn1)c1ccc(Oc2ccc(Cl)c(Cl)c2)nc1Cl (stereo not shown) [I.32] | 3.09^[a]
OC(Cn1cncn1)c1ccc(Oc2ccc(Cl)cc2Cl)nc1Cl (stereo not shown) [I.23] | 2.75^[a]
CC(O)(Cn1cncn1)c1ccc(Oc2ccc(Cl)cc2F)nc1C(F)(F)F (stereo not shown) [I.66] | 2.80^[a]

Incoming: LogP [a] lookup needed for OC(Cn1cncn1)(c1ccc(Oc2ccc(S(F)(F)(F)(F)F)cc2)nc1C(F)(F)F)C1CC1 (racemic) [I.97] , thanks.
Outgoing: 3.80^[a]

Incoming: Next record, please: OC(Cn1cncn1)c1cnc(Oc2ccc(C(F)(F)F)cc2)cc1Cl (stereo not shown) [I.88]
Outgoing: 2.64^[a]

Incoming: Proceed to CC(O)(Cn1cncn1)c1cnc(Oc2ccc(Cl)cc2)cc1Cl (racemic) [I.08]
Outgoing: 2.50^[a]

Incoming: Another: OC(Cn1cncn1)(c1ccc(Oc2ccc(C(F)(F)F)cc2)nc1C(F)(F)F)C1CC1 (stereo not shown) [I.87]
Outgoing: 3.57^[a]

Incoming: Again, but for C=CC(O)(Cn1cncn1)c1cnc(Oc2ccc(C(F)(F)F)cc2)cc1C(F)(F)F (stereo not shown) [I.69]
Outgoing: 3.33^[a]

Incoming: Check CC(O)(Cn1cncn1)c1cnc(Oc2ccc(C(F)(F)F)cc2)cc1Cl (stereo not shown) [I.78] too.
Outgoing: 2.88^[a]

Incoming: Proceed to OC(Cn1cncn1)c1cnc(Oc2ccc(C(F)(F)F)cc2)cc1C(F)(F)F (racemic) [I.47]
Outgoing: 2.84^[a]

###

# Tested on: fish (Danio rerio) embryos
# assayComment: In vivo ecotoxicity screening test on fish (Danio rerio)
# conditionContext: active compound alone; fish embryos, 96 h, 28.5° C.
Quick reference for Ecotoxicity LC50-96 h found among some molecules
Unit ppm a.i. implied. Number only.

Incoming: Can you share its Ecotoxicity LC50-96 h found? I mean this molecule: `COc1ccnc(C(=O)N[C@H]2COC(=O)[C@H](Cc3ccccc3)[C@@H](OC(=O)C(C)C)[C@H](C)OC2=O)c1OCOC(=O)C(C)C`
Outgoing: 1.87

Incoming: `Cn1cc(C(=O)Nc2ccc(F)cc2-c2ccc(Cl)c(Cl)c2)c(C(F)F)n1` , same question.
Outgoing: 0.154

Incoming: Try `CON=C(C(=O)OC)c1ccccc1CON=C(C)c1cccc(C(F)(F)F)c1` next.
Outgoing: 0.24

Incoming: What do you have for CCCN(CC)CC1COC2(CCC(C(C)(C)C)CC2)O1 (stereo not drawn) ?
Outgoing: 14.81
